Data provenance: PubChem BioAssay AID328

test system: BDF1 mice, P388 leukemia ip, median survival T/C; experiment: NCI In Vivo Anticancer Drug Screen. Data for tumor model P388 Leukemia (intraperitoneal) in B6D2F1 (BDF1) mice; conditions: endpoint: median survival time; dose: 400.0 mg/kg/injection; schedule: Q04DX003 (ip); vehicle: saline with Tween-80; higher = longer survival
Toxic doses and inconclusive results are not listed.
Measured Property: T/C

[
  {
    "Compound": "Cc1ccc(NS(=O)(=O)c2ccccc2)cc1",
    "Reported Result": "110 % of control"
  },
  {
    "Compound": "Cc1cccc(NC(=O)c2ccccc2Cl)c1C",
    "Reported Result": "90 % of control"
  },
  {
    "Compound": "CC(=O)Oc1ccc(/C=N/NC(N)=S)nc1",
    "Reported Result": "115 % of control"
  }
]

List T/C for every entry below, keeping the order given.
1. CCC(O)(CC(=O)O)c1ccccc1 (stereo not given)
2. O=C(Oc1ccc([N+](=O)[O-])cc1)c1ccc2ccccc2n1
3. O=c1oc(/C=C/c2ccccc2)nc2cc(Cl)ccc12
4. ClCCn1cnc2c(SCc3ccccc3)ncnc21
5. CC(C)n1cnc2c(Cl)ncnc21
6. CCOC(=O)C1(C(C)C)OC2CCCCCN2C1=O (stereo not given)

result:
1: 90 % of control; 2: 90 % of control; 3: 100 % of control; 4: 100 % of control; 5: 90 % of control; 6: 108 % of control

query: For the compound shown here, NC(=O)CC(NC(=O)OCc1ccccc1)C(=O)OCc1ccccc1 (stereo not given) , give the reported T/C.
result: 90 % of control
